B1: library; numbered along this chain (parent)
chain: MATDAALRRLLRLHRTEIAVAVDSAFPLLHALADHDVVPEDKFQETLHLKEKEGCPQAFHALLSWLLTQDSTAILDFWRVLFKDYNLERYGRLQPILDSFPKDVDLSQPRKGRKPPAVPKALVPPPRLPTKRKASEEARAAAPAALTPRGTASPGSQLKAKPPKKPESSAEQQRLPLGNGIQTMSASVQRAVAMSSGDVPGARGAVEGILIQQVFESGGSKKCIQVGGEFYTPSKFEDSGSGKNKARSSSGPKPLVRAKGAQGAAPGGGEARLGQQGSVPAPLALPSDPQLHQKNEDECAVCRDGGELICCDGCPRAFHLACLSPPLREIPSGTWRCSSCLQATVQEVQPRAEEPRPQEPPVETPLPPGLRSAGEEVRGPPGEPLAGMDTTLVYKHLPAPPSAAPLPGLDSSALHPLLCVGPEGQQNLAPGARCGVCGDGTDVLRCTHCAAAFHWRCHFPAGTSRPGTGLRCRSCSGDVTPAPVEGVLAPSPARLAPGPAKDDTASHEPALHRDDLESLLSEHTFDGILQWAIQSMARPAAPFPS

Variants of: B1
EXPERIMENT: AIRE transcriptional activation functional score (insulin promoter-GFP; nonsense median 0, synonymous median 1) (normalised score); higher = higher AIRE activity (more reporter activation)
CONDITION_SUMMARY: with insulin promoter-GFP reporter in HEK293
# maps each entry to its AIRE transcriptional activation functional score
Number only, please.

A186N :: 0.421
P119V :: 0.878
P490T :: 1.13
P143T :: 1.49
G277V :: 1.1

Item R190A : provide AIRE transcriptional activation functional score 0.878

Item Q275N : provide AIRE transcriptional activation functional score 1.01

Item L285I : provide AIRE transcriptional activation functional score 1.02

Item K222C : provide AIRE transcriptional activation functional score -0.312

Item E17S : provide AIRE transcriptional activation functional score -0.0199

Item K395Y : provide AIRE transcriptional activation functional score 1.47

Item Q425R : provide AIRE transcriptional activation functional score 0.94

Item R316A : provide AIRE transcriptional activation functional score 0.77

Item P176Y : provide AIRE transcriptional activation functional score 1.88

Item L210H : provide AIRE transcriptional activation functional score 0.71

Item R456V : provide AIRE transcriptional activation functional score -0.245

Item S153I : provide AIRE transcriptional activation functional score 1.03

Item K102V : provide AIRE transcriptional activation functional score 0.889

Item A452F : provide AIRE transcriptional activation functional score 0.934

Item G54S : provide AIRE transcriptional activation functional score -0.808

Item G435N : provide AIRE transcriptional activation functional score 0.945

Item Q44F : provide AIRE transcriptional activation functional score 1.98

Item S287G : provide AIRE transcriptional activation functional score 1.22

Item G469T : provide AIRE transcriptional activation functional score 0.687

Item S169C : provide AIRE transcriptional activation functional score 0.968
